- Substrate: ClCCCl
- experimental-protocol: ITC initial rates, steady-state fit with substrate inhibition
- Format: biochemical, Xanthobacter autotrophicus
- details: 100 mM glycine buffer, pH 8.6, 15 °C
Km listing for selected proteins.

Some solved entries appear below for comparison.
haloalkane dehalogenase (DhlA) (Xanthobacter autotrophicus; F128L) (protein) MINAIRTPDQRFSNLDQYPFSPNYLDDLPGYPGLRAHYLDEGNSDAEDVFLCLHGEPTWSYLYRKMIPVFAESGARVIAPDFFGFGKSDKPVDEEDYTFEFHRNFLLALIERLDLRNITLVVQDWGGLLGLTLPMADPSRFKRLIIMNACLMTDPVTQPAFSAFVTQPADGFTAWKYDLVTPSDLRLDQFMKRWAPTLTEAEASAYAAPFPDTSYQAGVRKFPKMVAQRDQACIDISTEAISFWQNDWNGQTFMAIGMKDKLLGPDVMYPMKALINGCPEPLEIADAGHFVQEFGEQVAREALKHFAETE : 700 ± 30 µM
haloalkane dehalogenase (DhlA) (Xanthobacter autotrophicus; L262V) (protein) MINAIRTPDQRFSNLDQYPFSPNYLDDLPGYPGLRAHYLDEGNSDAEDVFLCLHGEPTWSYLYRKMIPVFAESGARVIAPDFFGFGKSDKPVDEEDYTFEFHRNFLLALIERLDLRNITLVVQDWGGFLGLTLPMADPSRFKRLIIMNACLMTDPVTQPAFSAFVTQPADGFTAWKYDLVTPSDLRLDQFMKRWAPTLTEAEASAYAAPFPDTSYQAGVRKFPKMVAQRDQACIDISTEAISFWQNDWNGQTFMAIGMKDKVLGPDVMYPMKALINGCPEPLEIADAGHFVQEFGEQVAREALKHFAETE : 250 ± 30 µM

Here is another protein to look at.
Query block: Need Km of haloalkane dehalogenase (DhlA) (Xanthobacter autotrophicus; F128L/L262I) (protein) MINAIRTPDQRFSNLDQYPFSPNYLDDLPGYPGLRAHYLDEGNSDAEDVFLCLHGEPTWSYLYRKMIPVFAESGARVIAPDFFGFGKSDKPVDEEDYTFEFHRNFLLALIERLDLRNITLVVQDWGGLLGLTLPMADPSRFKRLIIMNACLMTDPVTQPAFSAFVTQPADGFTAWKYDLVTPSDLRLDQFMKRWAPTLTEAEASAYAAPFPDTSYQAGVRKFPKMVAQRDQACIDISTEAISFWQNDWNGQTFMAIGMKDKILGPDVMYPMKALINGCPEPLEIADAGHFVQEFGEQVAREALKHFAETE , thanks.
Result block: 1080 ± 100 µM

Entry source: paper PMC12445222
